test system: SR leukemia; assay: NCI-60 one-dose screen, 48 h; details: 10 µM unless noted
This is part of a sample that, as a whole, favours compounds with a hit. Of some 83,000 tested, about 20% had one in any assay. Activity calls are given as the source filed them. The calls were made as follows: active = growth percent below 10; inactive = the rest.
Your response should consist of one outcome taken from active, inactive

Worked examples follow.
> print(dat)
                                    compound  measured.on  class.label
 1  COc1ccc(-c2cc(-c3cccnc3)nc3sc4c(=O)n(-c5ccc(C)cc5)cnc4c23)cc1OC  SR leukemia     inactive
 2  COC1C/C(=N\O)C2OC(c3ccccc3)OCC2O1 (stereo unspecified)  SR leukemia     inactive
 3  C[C@@]1(N2C(=O)OC[C@@H]2c2ccccc2)C(=O)N([C@H](CC(=O)N2CCC(N3CCCCC3)CC2)C(=O)NCc2cccc(C(F)(F)F)c2)[C@@H]1/C=C/c1ccccc1  SR leukemia       active
 4  Cc1ccc2c(c1)C(=O)/C(=C/c1ccc(OCC(=O)c3ccccc3)cc1)O2  SR leukemia     inactive
 5  COc1cc2c(c(OC)c1OC)-c1ccc(N=NC(N)=S)c(=O)cc1[C@@H](NC(C)=O)CC2  SR leukemia     inactive
 6   Cc1cc(Nc2nc(-c3cccnc3)nc3ccccc23)n[nH]1  SR leukemia     inactive
 7  C/C(=C(/c1ccc(O)cc1)c1ccc(Cl)cc1)c1ccccc1  SR leukemia       active
 8  CC1=C(NCCN2CCCC2)C(=O)c2c(OCc3ccc(F)c(Cl)c3)cccc2C1=O  SR leukemia       active
 9  CN1CCN(Cc2ccc(NC(=O)c3cncc(C#Cc4c(N)ncc5ccc(C#N)cc45)c3)cc2C(F)(F)F)CC1  SR leukemia       active
10  CCN(CC)Cc1cc(Nc2c3ccc(Cl)cc3nc3c(C)cccc23)ccc1O  SR leukemia       active

Input: Which outcome was entered for the compound CCCCOc1ccc(NC(=O)n2nc(NC(C)=O)c3cc(NC(C)=O)ccc32)cc1 in this test?
Output: inactive

Input: Which outcome was entered for the compound COc1ccc(-c2cc(=O)[nH]c3c(OC)c4ccccc4c(OC)c23)cc1 in this test?
Output: active

Input: Which outcome was entered for the compound CC[C@H](Nc1ncnc(N)c1C(N)=O)c1nc2cccc(NCc3ccc(C(=O)NO)cc3)c2c(=O)n1-c1ccccc1 in this test?
Output: inactive

Input: Which outcome was entered for the compound COc1cc(NCCCCCN=C(N)NC(N)=NC(C)C)c2ncccc2c1 in this test?
Output: inactive

Input: Which outcome was entered for the compound NC(CC(=O)O)C(=O)OCc1ccccc1 (stereo unspecified) in this test?
Output: inactive

Input: Which outcome was entered for the compound COc1cc(OC)c(/C=C/S(=O)(=O)Cc2cnc(OC)c(N)c2)c(OC)c1 in this test?
Output: active

Input: Which outcome was entered for the compound O=C(O)c1ccc2c(c1Sc1ccccc1)C(=O)c1ccccc1C2=O in this test?
Output: inactive

Input: Which outcome was entered for the compound CC#Cc1nc2ccccc2c(=O)[nH]1 in this test?
Output: inactive

Input: Which outcome was entered for the compound CCC(=O)Oc1ccc(/C(=C(\C)c2ccccc2)c2ccc(OCCN(CC)CC)cc2)cc1 in this test?
Output: inactive

Input: Which outcome was entered for the compound COc1cnc2c(c1)C(=O)c1c-2n(CCCN2CCCC2)c(=O)c2cc([N+](=O)[O-])ccc12 in this test?
Output: active

Input: Which outcome was entered for the compound COc1cc2nc3cc([N+](=O)[O-])ccc3c(NCCCNCC(C)(C)O)c2cc1OC in this test?
Output: active
